Quantity kind: melting point

{"Compound": "Cc1cccc(NC(=O)C2=C(O)c3ccccc3N(c3ccccc3)C2)n1", "Quantity kind": "melting point", "Val": "74 to 77 °C"}
{"Compound": "CCOC(=O)c1ccc(N)cc1Br", "Quantity kind": "melting point", "Val": "93 °C"}
{"Compound": "CC(C(=O)NCCO)c1ccc(C(=O)c2cccs2)cc1 (stereo unspecified)", "Quantity kind": "melting point", "Val": "87.1 °C"}
{"Compound": "COc1ccc(CCOc2ccc(C(=O)N/C(=C\\c3ccc(SC)cc3)C(=O)NCCO)cc2)cc1", "Quantity kind": "melting point", "Val": "61 to 63 °C"}
{"Compound": "CNC(=O)Nc1ccc(Oc2ccc3sncc3c2)cc1", "Quantity kind": "melting point", "Val": "178 °C"}
{"Compound": "NS(=O)(=O)c1ccc(NC(=O)c2ccccc2SSCC(O)CO)cc1 (stereo unspecified)", "Quantity kind": "melting point", "Val": "> 260 °C"}
{"Compound": "Cc1cc2nc3ccc(C#N)cn3c(=O)c2s1", "Quantity kind": "melting point", "Val": "258 to 259 °C"}
{"Compound": "c1csc(-c2coc(COc3ccc(CCCn4ccnc4)cc3)n2)c1", "Quantity kind": "melting point", "Val": "123 to 124 °C"}
{"Compound": "C=CCOc1cc(OC(=S)N2CCCC2)ccc1Cl", "Quantity kind": "melting point", "Val": "87.3 to 91.1 °C"}
{"Compound": "Cc1c(C2CCC(c3ccccc3)(N(C)C)CC2)[nH]c2ccc(C(F)(F)F)cc12 (stereo unspecified)", "Quantity kind": "melting point", "Val": "204 to 217 °C"}
{"Compound": "O=Cc1ccc(OC2CCCC2)c(O)c1Br", "Quantity kind": "melting point", "Val": "107 to 109 °C"}

----------
{"Molecule": "COc1ccc(-c2cc(CO)c(=O)n(Cc3ccc(Cl)cc3)c2)cc1", "melting point": "128 °C"}
{"Molecule": "OCCOCCNc1nc(-n2ccnc2)nc2ccc(CO)cc12", "melting point": "183 °C"}
{"Molecule": "C#Cc1ccc2c(c1)C(c1ccccc1)=NC(C)c1c(C(=O)OCC)ncn1-2 (stereo unspecified)", "melting point": "197 to 199 °C"}
{"Molecule": "N#CCC(O)(c1ccc(Br)cc1)c1cccnc1 (stereo unspecified)", "melting point": "158 to 161 °C"}
{"Molecule": "Cc1oc2c(-n3c(=O)cc(C(F)(F)F)n(C)c3=O)ccc(Cl)c2c1C", "melting point": "152 to 153 °C"}
{"Molecule": "CC12C=CCC1C1CCC3CC(=O)CCC3(C)C1CC2 (stereo unspecified)", "melting point": "140 to 141 °C"}
{"Molecule": "OCCNc1c(Br)cnc2ccccc12", "melting point": "163 to 165 °C"}
{"Molecule": "O=C(Nc1ccc(-c2nnn[nH]2)cc1)C(=O)N1CCC(Cc2ccccc2)CC1", "melting point": "127 to 129 °C"}
{"Molecule": "Fc1cc(Cl)c2ccc(Cl)cc2n1", "melting point": "105 to 106 °C"}
{"Molecule": "CS(=O)(=O)N1CCCn2c(nc3c(N)nc4cccnc4c32)C1", "melting point": "> 250 °C"}
{"Molecule": "O=C(NC/C=C/c1ccccc1)c1ccc(Cl)c(Cl)c1", "melting point": "105 °C"}
